Taken from patent US20160287696A1.

Tested on: PBMCs from Phl p reactive donors
Assay: Cross-reactivity: IL-5 ELISPOT of PBMCs expanded 14 days with individual peptides, response to pollen extracts
Format: cell-based, human
Conditions: control: response to relevant pool of cells expanded with the peptide
Experimental: For each peptide, TG allergic donors were selected that reacted to the peptide after expanding PBMCs in vitro with TG extract. […] Reponses to extracts and peptide pools are expressed as the relative fraction of the response to the peptide itself, and capped at 100%. Each peptide was used to stimulate cells and cross reactivity was tested for extracts from each pollen species. […]
Measurement label: Controls, Relevant Pool
Quick one: just the number, no unit, thanks!

>  <Polymer sequence>
NPMTVFWSKMAQSMT

>  <Measurement label>
Controls, Relevant Pool

>  <Measured result>
79

$$$$
>  <Polymer sequence>
QYAKEIWGITANPVP

>  <Measurement label>
Controls, Relevant Pool

>  <Measured result>
100

$$$$

Pending sequence:
Tell me reported Controls, Relevant Pool for `DIYNYMEPYVSKVDP` , tested with PBMCs from Phl p reactive donors. 100

----------
Tested on: cultured PBMCs of the allergic donors
Assay: ELISPOT of IL-5 or IFNg production by cultured PBMCs of TG allergic donors in response to peptide
Assay type: cell-based, human
Conditions: Table 6; PP peptides recognized by T cells of grass allergic donors (n=20)
Reported No of PP & Th+ peptides per NTGA values for the following substances.
// return a plain number; no unit text

Below: 3 substances and their reported No of PP & Th+ peptides per NTGA.
>  <Substance>
5 (KLAMQEFMILPTGAS) [compound 5]

>  <No of PP & Th+ peptides per NTGA>
0

$$$$
>  <Substance>
33 (DDGKVYLEMSYYFEI) [compound 33]

>  <No of PP & Th+ peptides per NTGA>
0

$$$$
>  <Substance>
79 (WYEHRLIDDMVAYAL) [compound 79]

>  <No of PP & Th+ peptides per NTGA>
0

$$$$

Fill blank: measured No of PP & Th+ peptides per NTGA of the substance 58 (GKLDLLLSQGKEYVF) [compound 58] is ____. 0

Tell me the measured No of PP & Th+ peptides per NTGA of 31 (QGFIWGINSFDQWGV) [compound 31] , please. 0

Return reported No of PP & Th+ peptides per NTGA; argument: 72 (VQSDLYTLVDGFVTR) [compound 72] 1

Could you share which No of PP & Th+ peptides per NTGA value was measured for 40 (GIWAVLAWLSIIAYK) [compound 40] ? 2

Which No of PP & Th+ peptides per NTGA is reported for this substance? 28 (NGQHSFYQLIHQGRV) [compound 28] 0

Give its No of PP & Th+ peptides per NTGA value. Item: 35 (RNMVLGKRFFVTPSD) [compound 35] 1

Need No of PP & Th+ peptides per NTGA of 84 (KSLVRAFMWDSGSTV) [compound 84] , thanks. 3

// lookup No of PP & Th+ peptides per NTGA for 42 (HQGIRYLFGDGSRLV) [compound 42] 1

What value of No of PP & Th+ peptides per NTGA has been recorded for this entry: 44 (GATIRIYIEQYEKDS) [compound 44] 0

Using the record for 83 (LNTEEFIDAVAAELQ) [compound 83] , report its No of PP & Th+ peptides per NTGA. 4

Fill in: No of PP & Th+ peptides per NTGA of 55 (LNKKYGSNVPLLLMN) [compound 55] is ___ 0

----------
Tested on: cultured PBMCs of the allergic donors
Test: ELISPOT of IL-5 or IFNg production by cultured PBMCs of TG allergic donors in response to peptide
Assay type: cell-based, human
Conditions: Table 6; PG+ peptides recognized by T cells of grass allergic donors (n=20)
No of PG+ & th+ peptides per NTGA values for the substances below.
Reply: number alone, nothing else.

Worked cases, answers included:
>  <Substance>
72 (VQSDLYTLVDGFVTR) [compound 72]

>  <Measurement label>
No of PG+ & th+ peptides per NTGA

>  <Measured result>
2

$$$$
>  <Substance>
35 (RNMVLGKRFFVTPSD) [compound 35]

>  <Measurement label>
No of PG+ & th+ peptides per NTGA

>  <Measured result>
2

$$$$

Under cultured PBMCs of the allergic donors: No of PG+ & th+ peptides per NTGA value of 21 (VVSKTFTTAETMLNA) [compound 21] ? 0

Item 60 (SDNLGAIVDMKILNH) [compound 60] with cultured PBMCs of the allergic donors - No of PG+ & th+ peptides per NTGA? 0

# get_value(readout= No of PG+ & th+ peptides per NTGA, system= cultured PBMCs of the allergic donors) for 18 (ENRSVLHVALRAPRD) [compound 18] 0
